- system: Dual specificity protein kinase CLK3 (Homo sapiens, UniProt P49761)
- Sequence (P49761 whole entry): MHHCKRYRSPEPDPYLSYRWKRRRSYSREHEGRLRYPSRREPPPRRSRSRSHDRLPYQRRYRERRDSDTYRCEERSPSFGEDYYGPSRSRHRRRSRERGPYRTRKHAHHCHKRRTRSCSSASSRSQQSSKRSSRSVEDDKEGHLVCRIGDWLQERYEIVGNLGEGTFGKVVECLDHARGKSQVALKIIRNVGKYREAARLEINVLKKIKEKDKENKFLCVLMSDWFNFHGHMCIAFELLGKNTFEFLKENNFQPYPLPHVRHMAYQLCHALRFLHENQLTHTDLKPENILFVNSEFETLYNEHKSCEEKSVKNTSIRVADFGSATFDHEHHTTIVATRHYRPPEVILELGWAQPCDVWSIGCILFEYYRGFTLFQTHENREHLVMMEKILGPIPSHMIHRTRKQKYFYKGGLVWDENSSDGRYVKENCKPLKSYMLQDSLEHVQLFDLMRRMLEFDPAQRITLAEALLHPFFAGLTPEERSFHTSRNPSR
- experimentalProtocol: Inhibition of recombinant CLK3 (unknown origin) using Ser/Thr 18 peptide as substrate incubated for 1 hr in presence of ATP by FRET assay
parameter: EC50 (nM)

[P] O=C(Nc1cc2cc(-c3cncc(N[C@H]4CCNC[C@@H]4F)n3)ccc2cn1)C1CC1
[Q] CN1CCN(c2ccnc3[nH]c(-c4n[nH]c5ccc(-c6cncc(NC(=O)c7ccccc7)c6)nc45)cc23)CC1
[R] O=C(Cc1ccccc1)Nc1cncc(-c2ccc3[nH]nc(-c4cc5cnccc5[nH]4)c3c2)c1
-- ask Rank by decreasing EC50 the items listed here. Put the labels in the requested order and write them down.
-- reply Q, R, P
(Q: 258 nM, R: 180 nM, P: 11 nM)

Taken from ChEMBL document CHEMBL4739717.
